Sourced from patent US20170067909A1

molecular target: OATP1B1*1a (Homo sapiens, UniProt Q9Y6L6); conditions: read-out: Km, SLC Transporter Cells; substrate 0.25 to 40 μM, incubation 1 min
Result type: Km (µM)
Answers are plain numbers, in µM.

Please list Km recorded for the molecule C[C@]12CC[C@@H]3c4ccc(O)cc4CC[C@H]3[C@@H]1CC[C@@H]2O[C@@H]1O[C@H](C(=O)O)[C@@H](O)[C@H](O)[C@H]1O 6.2

---

Molecular target: OAT3 (Homo sapiens, UniProt Q8TCC7)
Sequence (Q8TCC7 1-542): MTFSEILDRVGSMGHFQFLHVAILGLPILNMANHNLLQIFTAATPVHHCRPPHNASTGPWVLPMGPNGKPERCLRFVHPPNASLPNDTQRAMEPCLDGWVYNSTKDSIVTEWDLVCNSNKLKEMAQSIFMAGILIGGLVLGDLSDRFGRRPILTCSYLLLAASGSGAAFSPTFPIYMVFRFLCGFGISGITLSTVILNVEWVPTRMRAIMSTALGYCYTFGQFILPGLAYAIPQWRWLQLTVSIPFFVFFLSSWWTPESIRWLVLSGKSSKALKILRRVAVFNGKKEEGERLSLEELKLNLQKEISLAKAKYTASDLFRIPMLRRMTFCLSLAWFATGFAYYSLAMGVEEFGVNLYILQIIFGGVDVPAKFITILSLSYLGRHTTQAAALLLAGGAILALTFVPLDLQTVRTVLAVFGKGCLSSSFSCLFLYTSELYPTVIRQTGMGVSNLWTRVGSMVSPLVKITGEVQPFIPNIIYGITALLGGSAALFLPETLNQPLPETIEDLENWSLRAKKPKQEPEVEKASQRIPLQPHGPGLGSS
Conditions: read-out: Km, SLC Transporter Cells; substrate 0.5 to 32 μM, incubation 1 min
Result type: Km (µM)
Give bare numbers, in µM.

Return reported Km. Input molecule: C[C@]12CC[C@@H]3c4ccc(OS(=O)(=O)O)cc4CC[C@H]3[C@@H]1CCC2=O [E3S, Estrone-3-sulfate] 4

---

molecular target: UniProt:Q9QZX8
Sequence (Q9QZX8 whole entry): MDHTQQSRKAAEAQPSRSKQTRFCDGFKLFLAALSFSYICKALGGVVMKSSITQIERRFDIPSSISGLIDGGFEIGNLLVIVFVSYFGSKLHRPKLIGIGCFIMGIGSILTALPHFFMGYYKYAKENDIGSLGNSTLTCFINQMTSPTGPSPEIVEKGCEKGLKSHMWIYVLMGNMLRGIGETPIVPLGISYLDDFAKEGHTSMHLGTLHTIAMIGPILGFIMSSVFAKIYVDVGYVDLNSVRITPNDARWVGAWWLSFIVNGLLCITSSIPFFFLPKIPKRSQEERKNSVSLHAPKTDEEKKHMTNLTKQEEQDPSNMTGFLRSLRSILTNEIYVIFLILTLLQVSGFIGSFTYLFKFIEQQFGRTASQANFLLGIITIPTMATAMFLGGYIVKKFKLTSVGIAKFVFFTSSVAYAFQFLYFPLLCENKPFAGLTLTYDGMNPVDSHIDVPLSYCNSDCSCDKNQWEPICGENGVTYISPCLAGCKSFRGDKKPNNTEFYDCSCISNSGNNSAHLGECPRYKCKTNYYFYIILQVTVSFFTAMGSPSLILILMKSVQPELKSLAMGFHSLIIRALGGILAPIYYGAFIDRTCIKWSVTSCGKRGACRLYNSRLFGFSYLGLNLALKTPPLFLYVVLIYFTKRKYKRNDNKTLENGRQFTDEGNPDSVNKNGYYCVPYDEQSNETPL
Result type: Km (µM)
Give bare numbers, in µM.

Using the record for C[C@]12CC[C@@H]3c4ccc(O)cc4CC[C@H]3[C@@H]1CC[C@@H]2O[C@@H]1O[C@H](C(=O)O)[C@@H](O)[C@H](O)[C@H]1O , state its measured Km. 9.6
